# System: IFN induction in virus-stimulated THP1 cells
# PROTOCOL_DESCRIPTION: Human cGAS cell assay, baculovirus-stimulated THP1-Dual cells, Lucia luciferase reporter (THP1(vir) IC50)
# Type: cell-based
# STATED_CONDITIONS: Homo sapiens, THP-1; baculovirus-stimulated THP1-Dual cells, 18 h
pIC50: −log10 of the molar value.
Classify as follows. Reported pIC50 greater than or equal to 7: true. Reported pIC50 below: false.

[
  {
    "COMPOUND": "C#Cc1cnc(O[C@H]2C[C@@H](C(=O)O)N(c3nc(C(F)(F)F)nc4c3oc3ccccc34)C2)c([C@]2(F)CCOC[C@@H]2C)c1 [Example 1.04]",
    "ASSIGNED_LABEL": "false"
  },
  {
    "COMPOUND": "Cc1nc(N2CCC[C@H]2C(=O)O)c2oc3ccccc3c2n1 [Example 15, reference compound]",
    "ASSIGNED_LABEL": "false"
  },
  {
    "COMPOUND": "C#Cc1cnc(O[C@H]2C[C@@H](C(=O)O)N(c3nc(C(F)F)nc4c3oc3ccccc34)C2)c([C@]2(F)CCS(=O)(=O)C[C@H]2C)c1 [Example 2.14]",
    "ASSIGNED_LABEL": "false"
  },
  {
    "COMPOUND": "CC1(C)C[C@](F)(c2cc(Cl)cnc2O[C@H]2C[C@@H](C(=O)O)N(c3nc(C(F)(F)F)nc4c3oc3ccccc34)C2)CCS1(=O)=O [Example 2.09]",
    "ASSIGNED_LABEL": "false"
  },
  {
    "COMPOUND": "CC#Cc1cnc(O[C@H]2C[C@@H](C(=O)O)N(c3nc(C(F)F)nc4c3oc3ccccc34)C2)c([C@@]2(F)CCN(C(C)=O)C[C@@H]2C)c1 [Example 2.18]",
    "ASSIGNED_LABEL": "true"
  },
  {
    "COMPOUND": "C#Cc1cnc(O[C@H]2C[C@@H](C(=O)O)N(c3nc(C(F)F)nc4c3oc3ccccc34)C2)c([C@@]2(F)CC(C)(C)S(=O)(=O)C[C@@H]2C)c1 [Example 1.09]",
    "ASSIGNED_LABEL": "true"
  },
  {
    "COMPOUND": "CNc1cc(-c2cnc(O[C@H]3C[C@@H](C(=O)O)N(c4nc(C(F)F)nc5c4oc4ccccc45)C3)c([C@@]3(F)CCOC[C@@H]3C)c2)ccn1 [Example 3.02]",
    "ASSIGNED_LABEL": "true"
  },
  {
    "COMPOUND": "Cc1nc(N2C[C@@H](CC(=O)Nc3ccncc3)C[C@H]2C(=O)O)c2oc3ccccc3c2n1 [Example 28, reference compound]",
    "ASSIGNED_LABEL": "false"
  },
  {
    "COMPOUND": "C[C@H]1CS(=O)(=O)CC[C@]1(F)c1cc(Cl)cnc1O[C@H]1C[C@@H](C(=O)O)N(c2nc(C(F)F)nc3c2oc2ccccc23)C1 [Example 1.13]",
    "ASSIGNED_LABEL": "true"
  },
  {
    "COMPOUND": "C[C@@H]1CS(=O)(=O)CC[C@@]1(F)c1cc(Cl)cnc1O[C@H]1C[C@@H](C(=O)O)N(c2nc(C(F)F)nc3c2oc2ccccc23)C1 [Example 1.12]",
    "ASSIGNED_LABEL": "false"
  },
  {
    "COMPOUND": "C#Cc1cnc(O[C@H]2C[C@@H](C(=O)O)N(c3nc(C(F)(F)F)nc4c3oc3ccccc34)C2)c([C@]2(F)CCS(=O)(=O)C(C)(C)C2)c1 [Example 1.14]",
    "ASSIGNED_LABEL": "true"
  },
  {
    "COMPOUND": "C#Cc1cnc(O[C@H]2C[C@@H](C(=O)O)N(c3nc(C(F)(F)F)nc4c3oc3ccccc34)C2)c([C@@]2(F)CCN(C(C)=O)C[C@@H]2C)c1 [Example 2.19]",
    "ASSIGNED_LABEL": "true"
  }
]

* * *

# MEASUREMENT_TARGET: Human cGAS (Homo sapiens (Human))
# PROTOCOL_DESCRIPTION: Human cGAS enzyme assay (hcGAS IC50, in vitro), cGAMP formation by RapidFire MS;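 further: compounds preincubated 60 min, then GTP and ATP (30 µM each) added for 90 min at room temperature, cGAMP read relative to cyclic-di-GMP internal standard, no-enzyme/DNA wells as 0%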
# Assay type: biochemical
# STATED_CONDITIONS: 45 bp dsDNA, GTP/ATP
Recorded IC50 values for a group of molecules are listed next.

[
  {
    "STRUCTURE_STRING": "O=C(O)[C@@H]1C[C@H](Oc2ncc(Cl)cc2[C@]2(F)CCOC[C@@H]2C(F)(F)F)CN1c1nc(C(F)F)nc2c1oc1ccccc12",
    "IC50": "10 nM"
  },
  {
    "STRUCTURE_STRING": "C[C@H]1CS(=O)(=O)C(C)(C)C[C@]1(F)c1cc(Cl)cnc1O[C@H]1C[C@@H](C(=O)O)N(c2nc(C(F)(F)F)nc3c2oc2ccccc23)C1",
    "IC50": "5 nM"
  },
  {
    "STRUCTURE_STRING": "C#Cc1cnc(O[C@H]2C[C@@H](C(=O)O)N(c3nc(C(F)(F)F)nc4c3oc3ccccc34)C2)c(C2(F)CCS(=O)(=O)CC2)c1",
    "IC50": "2 nM"
  },
  {
    "STRUCTURE_STRING": "CO[C@]1(c2cc(Cl)cnc2O[C@H]2C[C@@H](C(=O)O)N(c3nc(C(F)F)nc4c3oc3ccccc34)C2)CCS(=O)(=O)C[C@@H]1C",
    "IC50": "8 nM"
  },
  {
    "STRUCTURE_STRING": "C[C@H]1COCC[C@]1(F)c1cc(-c2cccc(N(C)C)c2)cnc1O[C@H]1C[C@@H](C(=O)O)N(c2nc(C(F)F)nc3c2oc2ccccc23)C1",
    "IC50": "17 nM"
  },
  {
    "STRUCTURE_STRING": "CC#Cc1cnc(O[C@H]2C[C@@H](C(=O)O)N(c3nc(C(F)F)nc4c3oc3ccccc34)C2)c([C@@]2(F)CCN(C(C)=O)C[C@@H]2C)c1",
    "IC50": "13 nM"
  }
]

* * *

# MEASUREMENT_TARGET: Human cGAS (Homo sapiens (Human), UniProt Q8N884)
# Sequence (Q8N884 whole entry): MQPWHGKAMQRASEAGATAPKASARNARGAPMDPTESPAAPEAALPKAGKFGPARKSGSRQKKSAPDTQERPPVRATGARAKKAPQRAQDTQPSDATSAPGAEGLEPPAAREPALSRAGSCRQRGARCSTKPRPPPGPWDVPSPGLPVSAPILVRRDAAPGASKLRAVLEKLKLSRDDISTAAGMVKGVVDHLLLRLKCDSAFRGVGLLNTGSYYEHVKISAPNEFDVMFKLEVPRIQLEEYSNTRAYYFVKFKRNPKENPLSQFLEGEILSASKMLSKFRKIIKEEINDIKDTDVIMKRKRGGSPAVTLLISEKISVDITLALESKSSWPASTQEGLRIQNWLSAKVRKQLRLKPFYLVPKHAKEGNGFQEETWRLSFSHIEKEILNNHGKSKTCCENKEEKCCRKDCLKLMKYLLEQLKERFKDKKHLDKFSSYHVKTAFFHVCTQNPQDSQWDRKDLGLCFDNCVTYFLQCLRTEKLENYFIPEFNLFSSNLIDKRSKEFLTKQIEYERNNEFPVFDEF
pIC50: −log10 of the molar value.

[
  {
    "COMPOUND": "O=C(O)[C@@H]1C[C@H](Oc2ncc(Cl)cc2C2(F)CCS(=O)(=O)CC2)CN1c1nc(C(F)F)nc2c1oc1ccccc12 [Example 2.01]",
    "pIC50": 8.52
  },
  {
    "COMPOUND": "C#Cc1cnc(O[C@H]2C[C@@H](C(=O)O)N(c3nc(C(F)(F)F)nc4c3oc3ccccc34)C2)c([C@]2(F)CCS(=O)(=O)C(C)(C)C2)c1 [Example 1.14]",
    "pIC50": 8.05
  },
  {
    "COMPOUND": "C#Cc1cnc(O[C@H]2C[C@@H](C(=O)O)N(c3nc(C(F)F)nc4c3oc3ccccc34)C2)c([C@]2(F)CC(C)(C)S(=O)(=O)C[C@@H]2C)c1 [Example 1.10]",
    "pIC50": 7.40
  },
  {
    "COMPOUND": "O=C(O)[C@@H]1C[C@H](Oc2ncc(Cl)cc2[C@]2(F)CCS(=O)(=O)C3(CC3)C2)CN1c1nc(C(F)F)nc2c1oc1ccccc12 [Example 1.17]",
    "pIC50": 8.52
  }
]

* * *

Below is a list of entries, each paired with its recorded IC50 value.
# System: IFN induction in virus-stimulated THP1 cells
# PROTOCOL_DESCRIPTION: Human cGAS cell assay, baculovirus-stimulated THP1-Dual cells, Lucia luciferase reporter (THP1(vir) IC50);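 further: IRF-dependent luminescence, 8 concentrations up to 10 µM in 1% DMSO, 0% = unstimulated cells, 100% = DMSO plus virus, counter assay stimulated with cGAMP downstream of cGAS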
# Format: cell-based
# STATED_CONDITIONS: Homo sapiens, THP-1; baculovirus-stimulated THP1-Dual cells, 18 h
QUANTITY_MEASURED: IC50 (nM)

[
  {
    "COMPOUND": "O=C(O)[C@@H]1C[C@H](Oc2ncc(-n3cc(Cl)cn3)cc2C2(F)CCOCC2)CN1c1nc(C(F)F)nc2c1oc1ccccc12 [Example 5.01]",
    "RESULT_OPERATOR": "=",
    "DATA_VALUE": 1000
  },
  {
    "COMPOUND": "C[C@H]1CS(=O)(=O)C(C)(C)C[C@]1(F)c1cc(Cl)cnc1O[C@H]1C[C@@H](C(=O)O)N(c2nc(C(F)F)nc3c2oc2ccccc23)C1 [Example 1.16]",
    "RESULT_OPERATOR": "=",
    "DATA_VALUE": 8
  },
  {
    "COMPOUND": "C#Cc1cnc(O[C@H]2C[C@@H](C(=O)O)N(c3nc(C(F)F)nc4c3oc3ccccc34)C2)c([C@]2(F)CCS(=O)(=O)C(C)(C)C2)c1 [Example 1.15]",
    "RESULT_OPERATOR": "=",
    "DATA_VALUE": 11
  },
  {
    "COMPOUND": "C[C@H]1COCC[C@]1(O)c1cc(Cl)cnc1O[C@H]1C[C@@H](C(=O)O)N(c2nc(C(F)F)nc3c2oc2ccccc23)C1 [Example 1.01]",
    "RESULT_OPERATOR": "=",
    "DATA_VALUE": 530
  },
  {
    "COMPOUND": "Cc1nc(N2C[C@@H](Nc3ccncc3)C[C@H]2C(=O)O)c2oc3ccccc3c2n1 [Example 38, reference compound]",
    "RESULT_OPERATOR": ">",
    "DATA_VALUE": 17000
  },
  {
    "COMPOUND": "C#Cc1cnc(O[C@H]2C[C@@H](C(=O)O)N(c3nc(C(F)F)nc4c3oc3ccccc34)C2)c([C@@]2(F)CCS(=O)(=O)C[C@@H]2C)c1 [Example 2.11]",
    "RESULT_OPERATOR": "=",
    "DATA_VALUE": 4
  },
  {
    "COMPOUND": "CO[C@]1(c2cc(Cl)cnc2O[C@H]2C[C@@H](C(=O)O)N(c3nc(C(F)F)nc4c3oc3ccccc34)C2)CCS(=O)(=O)C[C@@H]1C [Example 2.06]",
    "RESULT_OPERATOR": "=",
    "DATA_VALUE": 314
  },
  {
    "COMPOUND": "C[C@H]1CS(=O)(=O)C(C)(C)C[C@]1(F)c1cc(Cl)cnc1O[C@H]1C[C@@H](C(=O)O)N(c2nc(C(F)(F)F)nc3c2oc2ccccc23)C1 [Example 1.06]",
    "RESULT_OPERATOR": "=",
    "DATA_VALUE": 12
  },
  {
    "COMPOUND": "C[C@H]1CS(=O)(=O)CC[C@]1(F)c1cc(Cl)cnc1O[C@H]1C[C@@H](C(=O)O)N(c2nc(C(F)(F)F)nc3c2oc2ccccc23)C1 [Example 2.10]",
    "RESULT_OPERATOR": "=",
    "DATA_VALUE": 4
  },
  {
    "COMPOUND": "O=C(O)[C@@H]1C[C@H](Oc2ncc(Cl)cc2[C@]2(F)CCS(=O)(=O)C3(CC3)C2)CN1c1nc(C(F)F)nc2c1oc1ccccc12 [Example 1.17]",
    "RESULT_OPERATOR": "=",
    "DATA_VALUE": 54
  },
  {
    "COMPOUND": "O=C(O)[C@@H]1C[C@H](Oc2ncc(Cl)cc2C2(F)CCS(=O)(=O)CC2)CN1c1nc(C(F)F)nc2c1oc1ccccc12 [Example 2.01]",
    "RESULT_OPERATOR": "=",
    "DATA_VALUE": 179
  },
  {
    "COMPOUND": "C#Cc1cnc(O[C@H]2C[C@@H](C(=O)O)N(c3nc(C(F)(F)F)nc4c3oc3ccccc34)C2)c([C@@]2(F)CCS(=O)(=O)C[C@@H]2C)c1 [Example 2.12]",
    "RESULT_OPERATOR": "=",
    "DATA_VALUE": 8
  },
  {
    "COMPOUND": "C#Cc1cnc(O[C@H]2C[C@@H](C(=O)OC)N(c3nc(C(F)(F)F)nc4c3oc3ccccc34)C2)c([C@@]2(F)CCS(=O)(=O)C[C@@H]2C)c1 [Example P01]",
    "RESULT_OPERATOR": "=",
    "DATA_VALUE": 11
  },
  {
    "COMPOUND": "CC1(C)C[C@](F)(c2cc(Cl)cnc2O[C@H]2C[C@@H](C(=O)O)N(c3nc(C(F)F)nc4c3oc3ccccc34)C2)CCS1(=O)=O [Example 2.08]",
    "RESULT_OPERATOR": "=",
    "DATA_VALUE": 25
  },
  {
    "COMPOUND": "C#Cc1cnc(O[C@H]2C[C@@H](C(=O)O)N(c3nc(C(F)(F)F)nc4c3oc3ccccc34)C2)c([C@]2(F)CCS(=O)(=O)C[C@H]2C)c1 [Example 2.15]",
    "RESULT_OPERATOR": "=",
    "DATA_VALUE": 207
  },
  {
    "COMPOUND": "COC(=O)[C@@H]1C[C@H](Oc2ncc(Cl)cc2[C@@]2(F)CCS(=O)(=O)C[C@@H]2C)CN1c1nc(C(F)F)nc2c1oc1ccccc12 [Example P02]",
    "RESULT_OPERATOR": "=",
    "DATA_VALUE": 29
  },
  {
    "COMPOUND": "C#Cc1cnc(O[C@H]2C[C@@H](C(=O)O)N(c3nc(C(F)F)nc4c3oc3ccccc34)C2)c([C@@]2(F)CCOC[C@@H]2C)c1 [Example 1.02]",
    "RESULT_OPERATOR": "=",
    "DATA_VALUE": 351
  }
]
